In this section we review reported IC50 values for a set of molecules.
# Test system: MIA PaCa-2 cells with Kras G12C mutation
# experiment_summary: Cell proliferation inhibition experiment, 3D spheroid, CellTiter-Glo (Test Example 3)
# Assay type: cell-based, human
# condition_info: Homo sapiens, MIA PaCa-2, 120 h, 5 days, read-out: MIA-PaCa2 IC50
Supply the numeric figure in nM, leaving out any unit text.

molecule: C=CC(=O)N1CCN2c3c(c(=O)n(-c4c(C(C)C)ncnc4C(C)C)c4nc(-c5c(O)cccc5F)c(Cl)cc34)N(C)C(=O)[C@H]2C1 [Compound Z48]
IC50 [nM]: 6

molecule: C=CC(=O)N1C[C@@H]2C(=O)N(C)c3c(c4cc(F)c(-c5c(O)cccc5F)nc4n(-c4c(C(C)C)ncnc4C(C)C)c3=O)N2C[C@H]1C [Compound Z40]
IC50 [nM]: 12

Continue with the molecule presented below.
Quick one: IC50 of C=CC(=O)N1CCN2c3c(c(=O)n(-c4c(C)ccnc4C(C)C)c4nc(-c5c(O)cccc5F)c(Cl)cc34)NC(=O)[C@H]2C1 [Compound Z24] ?
9
